Values compiled from PubChem BioAssay (Tox21).

biological target: Nuclear receptor subfamily 1 group I member 2 (Homo sapiens) (UniProt O75469); assay: Human pregnane X receptor (PXR) small molecule agonists, qHTS assay (AID 1346982); details: PXR-Luc HepG2, CYP3A4 luciferase reporter, 24 h; series mostly up to 92.4 µM; also: nearly all actives have a fitted effect of over 35% in size
Sequence (O75469 whole entry, looked up): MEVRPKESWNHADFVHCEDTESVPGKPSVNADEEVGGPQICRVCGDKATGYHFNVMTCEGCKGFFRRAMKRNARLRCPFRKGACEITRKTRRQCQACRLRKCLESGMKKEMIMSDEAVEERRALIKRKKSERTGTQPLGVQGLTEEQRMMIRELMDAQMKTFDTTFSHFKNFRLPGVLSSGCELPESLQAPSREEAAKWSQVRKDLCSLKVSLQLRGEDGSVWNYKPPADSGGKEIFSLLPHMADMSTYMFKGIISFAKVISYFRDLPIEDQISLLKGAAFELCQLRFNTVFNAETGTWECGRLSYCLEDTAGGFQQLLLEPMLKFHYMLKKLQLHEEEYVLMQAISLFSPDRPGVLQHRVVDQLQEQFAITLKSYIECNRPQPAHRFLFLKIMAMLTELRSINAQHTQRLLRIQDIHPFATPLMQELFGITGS
Records with an inconclusive call do not appear. The source made the active and inactive calls. Calls follow the shape of the dose curve; as a rule, active = well fitted activation curve with a large enough effect in the repeat runs; inconclusive = weak or mixed curves; inactive = no such curve, though single readings can be large or run the other way.
Respond with a class label; see YES for active, NO for inactive

>  <Molecule>
C[Si](C)(C)O[Si](O)(O)O

>  <Tested target>
Nuclear receptor subfamily 1 group I member 2 (Homo sapiens) (UniProt O75469)

>  <Qualitative label>
NO

$$$$
>  <Molecule>
O=C(O)/C=C(\CC(=O)O)C(=O)O

>  <Tested target>
Nuclear receptor subfamily 1 group I member 2 (Homo sapiens) (UniProt O75469)

>  <Qualitative label>
NO

$$$$
>  <Molecule>
CC[N+](C)(CC)CC

>  <Tested target>
Nuclear receptor subfamily 1 group I member 2 (Homo sapiens) (UniProt O75469)

>  <Qualitative label>
NO

$$$$
>  <Molecule>
CC/C=C/CCCCCCCCCCOC(C)=O

>  <Tested target>
Nuclear receptor subfamily 1 group I member 2 (Homo sapiens) (UniProt O75469)

>  <Qualitative label>
NO

$$$$
>  <Molecule>
CNCCc1ccccn1

>  <Tested target>
Nuclear receptor subfamily 1 group I member 2 (Homo sapiens) (UniProt O75469)

>  <Qualitative label>
NO

$$$$

For the next question, use this molecule.
Lookup: Recorded call for O=C1CC2(CCCC2)CC(=O)N1CCNCC1COc2ccccc2O1 (stereo unspecified) ?
Found: YES

###

test system: thyroid hormone receptor (rat, GH3 cells); experiment: qHTS assay to identify small molecule agonists of the thyroid receptor (TR) signaling pathway (AID 743066); details: GH3.TRE-Luc cells, TR agonist luciferase, 24 h; series mostly up to 83.9 µM
Inconclusive results are not listed. Active and inactive are the calls of the source. Calls follow the shape of the full dose curve.
Test readout: activation

Use the examples below as a reference point.
>  <Compound>
CCOCCOCCOC(C)=O

>  <activation>
inactive

$$$$
>  <Compound>
CNCCc1ccccn1

>  <activation>
inactive

$$$$
>  <Compound>
O=C(O)/C=C(\CC(=O)O)C(=O)O

>  <activation>
inactive

$$$$
>  <Compound>
CCO/C=C1\N=C(c2ccccc2)OC1=O

>  <activation>
inactive

$$$$
>  <Compound>
Cc1ccc(S(=O)(=O)NC(=O)NN2CC3CCCC3C2)cc1 (stereo not given)

>  <activation>
inactive

$$$$
>  <Compound>
NS(=O)(=O)c1cc2c(cc1C(F)(F)F)NCNS2(=O)=O

>  <activation>
inactive

$$$$
>  <Compound>
N[C@H]1C(O)O[C@H](CO)[C@@H](O)[C@@H]1O (stereo not given in full)

>  <activation>
inactive

$$$$
>  <Compound>
C[C@@H]1NC(=O)[C@@H](N)CNC(=O)[C@H](C2CCNC(N)=N2)NC(=O)/C(=C/NC(N)=O)NC(=O)[C@H](CNC(=O)C[C@@H](N)CCCN)NC1=O (stereo not given in full)

>  <activation>
inactive

$$$$

Lookup: Need activation, item CC/C=C/CCCCCCCCCCOC(C)=O
Found: inactive

###

test system: thyroid hormone receptor (rat, GH3 cells); assay: qHTS assay to identify small molecule agonists of the thyroid receptor (TR) signaling pathway (AID 743066); settings: GH3.TRE-Luc cells, TR agonist luciferase, 24 h; series mostly up to 83.9 µM
Inconclusive results are not listed. Activity calls are given as the source filed them. Calls follow the shape of the full dose curve.
Test readout: activation

Use the examples below as a reference point.
>  <Compound>
CC(C)(O)c1ccc(C(C)(C)O)cc1

>  <activation>
inactive

$$$$
>  <Compound>
C=COCCCCO

>  <activation>
inactive

$$$$
>  <Compound>
N=C(N)N1CCc2ccccc2C1

>  <activation>
inactive

$$$$
>  <Compound>
Cc1cc(N)no1

>  <activation>
inactive

$$$$
>  <Compound>
CC(=O)OC1CCC(C(C)(C)C)CC1 (configuration not stated)

>  <activation>
inactive

$$$$

Lookup: Short answer please: activation, thyroid hormone receptor (rat, GH3 cells), entry COCCCOc1cc(C[C@@H](C[C@H](N)[C@@H](O)C[C@H](C(=O)NCC(C)(C)C(N)=O)C(C)C)C(C)C)ccc1OC
Found: inactive

Lookup: And what about the compound O=S(=O)(O)c1cc(I)c(O)c2ncccc12 ?
Found: inactive

Lookup: And what about the compound O=C(O)CCCCCCCCCC(=O)O ?
Found: inactive

Lookup: And what about the compound Cc1ccc(O)c(C(=O)c2ccccc2)c1 ?
Found: inactive

Lookup: And what about the compound C=CCON/C(CCC)=C1\C(=O)CC(C)(C)C(C(=O)OC)=C1O ?
Found: inactive

Lookup: And what about the compound OCCC(F)(F)C(F)(F)C(F)(F)C(F)(F)C(F)(F)C(F)(F)F ?
Found: inactive

Lookup: And what about the compound C/C(=N\O)c1ccc(OCC(=O)N2CCCCC2)cc1 ?
Found: inactive
